Molecular target: his-labeled human IL-13 (immunogen A) (human) (UniProt P35225)
Test: FACS blocking assay: antibody titrated with biotin-labeled immunogen A (20 ng/mL); blocked partner IL-13Ra2 on HEK293 clone 1A1; Alexa 488 streptavidin
Measurement Label: IC50 (read off the curve) (nM)
One number for each entry, in nM.

[[record]]
binder = "29D9H8 (lead antibody, mouse hybridoma) (antibody, V domains shown, Mouse monoclonal antibody purified from hybridoma supernatant on Protein G) VH: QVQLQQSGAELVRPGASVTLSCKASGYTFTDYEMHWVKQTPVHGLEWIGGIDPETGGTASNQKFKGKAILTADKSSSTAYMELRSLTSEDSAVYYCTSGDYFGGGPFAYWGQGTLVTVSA VL: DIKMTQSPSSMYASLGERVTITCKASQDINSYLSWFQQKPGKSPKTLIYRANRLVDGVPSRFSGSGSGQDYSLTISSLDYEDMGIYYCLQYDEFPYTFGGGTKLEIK"
test_result = 0.2

[[record]]
binder = "c70F10A10 (mouse-human chimeric IL-13 antibody) (antibody, V domains shown) VH: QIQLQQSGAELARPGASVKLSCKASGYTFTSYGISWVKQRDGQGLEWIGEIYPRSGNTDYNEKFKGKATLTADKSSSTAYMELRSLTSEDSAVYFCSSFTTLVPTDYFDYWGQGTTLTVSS VL: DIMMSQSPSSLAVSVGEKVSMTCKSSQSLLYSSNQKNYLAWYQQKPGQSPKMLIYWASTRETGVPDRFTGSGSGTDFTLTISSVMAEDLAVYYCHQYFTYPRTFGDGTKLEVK"
test_result = 0.7

[[record]]
binder = "c28A2E11 (mouse-human chimeric IL-13 antibody) (antibody, V domains shown) VH: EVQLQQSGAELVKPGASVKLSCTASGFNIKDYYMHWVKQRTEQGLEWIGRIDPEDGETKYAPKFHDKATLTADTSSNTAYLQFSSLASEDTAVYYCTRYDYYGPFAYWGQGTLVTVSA VL: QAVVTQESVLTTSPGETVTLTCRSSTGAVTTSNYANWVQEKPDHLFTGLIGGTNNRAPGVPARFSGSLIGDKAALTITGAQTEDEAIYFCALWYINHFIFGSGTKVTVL"
test_result = 1

[[record]]
binder = "28A2E11 (lead antibody, mouse hybridoma) (antibody, V domains shown, Mouse monoclonal antibody purified from hybridoma supernatant on Protein G) VH: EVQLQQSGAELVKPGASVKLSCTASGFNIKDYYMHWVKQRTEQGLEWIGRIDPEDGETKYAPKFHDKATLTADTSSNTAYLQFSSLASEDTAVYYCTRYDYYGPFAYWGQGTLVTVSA VL: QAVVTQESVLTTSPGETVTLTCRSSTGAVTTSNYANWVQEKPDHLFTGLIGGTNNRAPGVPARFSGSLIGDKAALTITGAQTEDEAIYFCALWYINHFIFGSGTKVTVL"
test_result = 0.6

[[record]]
binder = "c35E2C3 (mouse-human chimeric IL-13 antibody) (antibody, V domains shown) VH: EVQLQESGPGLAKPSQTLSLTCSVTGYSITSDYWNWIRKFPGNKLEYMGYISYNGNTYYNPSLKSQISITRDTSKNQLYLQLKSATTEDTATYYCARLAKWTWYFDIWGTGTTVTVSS VL: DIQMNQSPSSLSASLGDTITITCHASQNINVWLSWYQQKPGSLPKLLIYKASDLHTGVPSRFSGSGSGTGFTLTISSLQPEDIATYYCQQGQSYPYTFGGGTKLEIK"
test_result = 0.3


The record that follows has no IC50 (read off the curve) shown yet.
What the record says about 35E2C3 (lead antibody, mouse hybridoma) (antibody, V domains shown, Mouse monoclonal antibody purified from hybridoma supernatant on Protein G) VH: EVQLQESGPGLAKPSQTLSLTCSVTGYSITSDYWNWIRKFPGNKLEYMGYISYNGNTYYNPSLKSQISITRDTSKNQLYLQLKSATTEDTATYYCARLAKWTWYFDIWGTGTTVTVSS VL: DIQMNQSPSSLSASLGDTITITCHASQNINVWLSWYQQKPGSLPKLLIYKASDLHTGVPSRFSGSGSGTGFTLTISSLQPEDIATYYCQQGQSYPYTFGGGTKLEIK : IC50 (read off the curve) is 0.3
